Test Target: Phosphatidylinositol 4,5-bisphosphate 3-kinase catalytic subunit delta isoform (Homo sapiens)
Sequence (O00329 whole entry, canonical isoform): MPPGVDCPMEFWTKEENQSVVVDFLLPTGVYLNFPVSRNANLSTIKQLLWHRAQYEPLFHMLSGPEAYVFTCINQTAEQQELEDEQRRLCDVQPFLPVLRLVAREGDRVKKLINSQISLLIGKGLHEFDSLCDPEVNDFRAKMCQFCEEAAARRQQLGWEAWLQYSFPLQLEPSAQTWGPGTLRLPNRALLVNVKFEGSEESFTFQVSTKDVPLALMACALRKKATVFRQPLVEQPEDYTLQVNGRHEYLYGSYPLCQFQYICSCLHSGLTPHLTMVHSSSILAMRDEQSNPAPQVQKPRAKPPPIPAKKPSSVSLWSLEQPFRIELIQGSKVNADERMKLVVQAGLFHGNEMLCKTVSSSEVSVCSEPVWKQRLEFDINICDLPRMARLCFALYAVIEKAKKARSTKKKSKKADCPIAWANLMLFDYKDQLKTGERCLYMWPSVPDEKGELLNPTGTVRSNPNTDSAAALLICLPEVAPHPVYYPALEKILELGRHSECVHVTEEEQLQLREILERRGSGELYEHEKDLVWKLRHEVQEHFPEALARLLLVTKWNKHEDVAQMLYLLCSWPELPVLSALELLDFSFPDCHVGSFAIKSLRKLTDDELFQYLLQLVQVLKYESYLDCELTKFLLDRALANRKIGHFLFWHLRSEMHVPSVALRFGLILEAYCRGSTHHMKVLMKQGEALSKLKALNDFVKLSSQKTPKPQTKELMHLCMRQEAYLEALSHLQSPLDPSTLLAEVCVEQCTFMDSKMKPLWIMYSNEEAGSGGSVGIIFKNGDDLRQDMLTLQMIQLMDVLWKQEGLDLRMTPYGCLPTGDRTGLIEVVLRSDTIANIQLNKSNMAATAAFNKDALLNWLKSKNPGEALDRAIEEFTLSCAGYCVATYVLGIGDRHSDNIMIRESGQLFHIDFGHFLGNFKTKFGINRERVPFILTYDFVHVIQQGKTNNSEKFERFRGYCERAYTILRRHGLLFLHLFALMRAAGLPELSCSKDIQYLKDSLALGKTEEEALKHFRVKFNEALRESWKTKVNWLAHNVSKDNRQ
Test Summary: Inhibition of N-terminal 6xHis-tagged recombinant full-length human PI3Kdelta expressed in baculovirus infected Sf21 insect cells by ADP-Glo assay
Listed below: IC50 values for each entry.
Readout Label: IC50

COc1cccc2c1nc(C(F)F)n2-c1nc(N2CCOCC2)cc(N2CCN(C(=S)SCC(=O)N3CCOCC3)CC2)n1
> 50 nM
COc1cccc2c1nc(C(F)F)n2-c1nc(N2CCOCC2)cc(N2CCN(C(=S)SCC(=O)N(C)C)CC2)n1
> 50 nM
COc1cccc2c1nc(C(F)F)n2-c1nc(N2CCOCC2)nc(N2CCN(C(=S)SCC(=O)N3CCN(S(C)(=O)=O)CC3)CC2)n1
> 50 nM
